target: β-clamp (Escherichia coli, UniProt P0A988); experiment: Saturation transfer difference (STD)-NMR of peptides with β-clamp; assay type: binding; set-up: made in house; conditions: 150 µM peptide, 1.5 µM β-clamp; 25°C; 20 mM sodium phosphate, 100 mM NaCl, 5 mM DTT, 0.3% DMSO, 5% D2O, pH 7.4; 600 MHz
Sequence (P0A988 whole entry): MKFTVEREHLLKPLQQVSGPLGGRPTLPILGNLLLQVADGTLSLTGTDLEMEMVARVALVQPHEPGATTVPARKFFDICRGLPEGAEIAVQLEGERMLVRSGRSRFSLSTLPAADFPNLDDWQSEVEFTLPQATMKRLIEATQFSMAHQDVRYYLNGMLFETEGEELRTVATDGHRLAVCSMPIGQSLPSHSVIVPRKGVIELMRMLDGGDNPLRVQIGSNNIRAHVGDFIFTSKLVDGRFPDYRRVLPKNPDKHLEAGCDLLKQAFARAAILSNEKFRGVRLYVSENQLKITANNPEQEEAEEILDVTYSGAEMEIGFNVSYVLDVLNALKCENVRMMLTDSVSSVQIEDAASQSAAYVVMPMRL
VALUE_KIND: STD-NMR binding

GQADMFG [DNA polymerase III internal CBM peptide, positive control, reference compound]
clear binding
EQVELEFD [DNA polymerase III C-terminal CBM peptide, positive control, reference compound]
clear binding

Where these numbers come from: paper PMC13254535
